Source of measurements: the supplement of paper PMC10567573

B1: CROP (parent)
chain: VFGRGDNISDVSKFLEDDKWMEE

# Variants of: B1
# PROTOCOL: protein stability index of a GFP-peptide fusion (GPS, HEK-293T) (PSI 1-6); higher = more stable;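 further: lentivirally expressed fusions sorted by FACS into six bins by GFP to DsRed ratio, PSI derived from sequencing read proportions per bin multiplied by bin number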
# EXPERIMENTAL_SETUP: c terminus: native
Form field: protein stability index (one value per entry).
Give a plain numeric answer without units written out.

Examples from the recorded data:
variant_notation=V11Y recorded_number=1.38
variant_notation=D18P recorded_number=3.66
variant_notation=S9H recorded_number=2.25

Exam item: Which protein stability index reading was recorded for the variant G5Y ?
Marked response: 1.32

Exam item: Which protein stability index reading was recorded for the variant S12Y ?
Marked response: 1.74

Exam item: Which protein stability index reading was recorded for the variant E23A ?
Marked response: 4.36

Exam item: Which protein stability index reading was recorded for the variant S12V ?
Marked response: 1.86

Exam item: Which protein stability index reading was recorded for the variant K13R ?
Marked response: 1.89

Exam item: Which protein stability index reading was recorded for the variant G5V ?
Marked response: 1.61

Exam item: Which protein stability index reading was recorded for the variant E22H ?
Marked response: 4.54

Exam item: Which protein stability index reading was recorded for the variant G5A ?
Marked response: 2.03
